Target: Oxytocin receptor (Rattus norvegicus, UniProt P70536)
Sequence (P70536 whole entry): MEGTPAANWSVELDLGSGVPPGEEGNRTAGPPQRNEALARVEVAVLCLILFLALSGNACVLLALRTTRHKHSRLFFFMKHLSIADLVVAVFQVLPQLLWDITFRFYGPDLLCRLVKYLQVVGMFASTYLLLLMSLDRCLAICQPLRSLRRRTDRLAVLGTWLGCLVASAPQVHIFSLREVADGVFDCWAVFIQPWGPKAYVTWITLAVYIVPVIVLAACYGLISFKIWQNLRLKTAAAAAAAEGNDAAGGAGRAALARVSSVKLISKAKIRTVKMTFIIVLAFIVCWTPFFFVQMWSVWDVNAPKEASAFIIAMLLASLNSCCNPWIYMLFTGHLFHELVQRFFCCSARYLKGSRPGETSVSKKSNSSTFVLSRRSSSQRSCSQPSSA
Experiment: Inhibition of radioligand [3H]oxytocin binding at the oxytocin (OT) receptor in rat uterine tissue
result-type: IC50 (nM)

CC1(C)[C@H]2CC[C@]1(CS(=O)(=O)N1CCC3(CCc4ccccc43)CC1)[C@H](NC(=O)Cc1c[nH]cn1)C2; 1200
COC(=O)CCN(C(=O)Cc1cn(C)cn1)[C@H]1C[C@H]2CC[C@]1(CS(=O)(=O)N1CCC3(CCc4ccccc43)CC1)C2(C)C; 32
CC1(C)[C@@H]2CC[C@@]1(CS(=O)(=O)N1CCC3(CCc4ccccc43)CC1)[C@@H](NC(=O)[C@@H](Cc1c[nH]cn1)NC(=O)CCC(N)=O)C2; 32
CCCS(=O)(=O)N[C@H]1C[C@H]2CC[C@]1(CS(=O)(=O)N1CCC3(CCc4ccccc43)CC1)C2(C)C; 310
CC1(C)[C@@H]2CC[C@@]1(CS(=O)(=O)N1CCC3(CCc4ccccc43)CC1)[C@@H](NC(=O)Cc1ccccc1)C2; 250

a: CC1(C)[C@@H]2CC[C@@]1(CS(=O)(=O)N1CCC3(CCc4ccccc43)CC1)[C@@H](NC(=O)C[C@]13C[C@H]4C[C@H](C[C@H](C4)C1)C3)C2
b: CC1(C)[C@@H]2CC[C@@]1(CS(=O)(=O)N1CCC3(CCc4ccccc43)CC1)[C@@H](N1C(=O)CN(Cc3nn[nH]n3)C1=O)C2
c: CC1(C)[C@@H]2CC[C@@]1(CS(=O)(=O)N1CCC3(CCc4ccccc43)CC1)[C@@H](N1C(=O)NC(CC(=O)Nc3nn[nH]n3)C1=O)C2 (stereo partly drawn)
[Q] Thanks in advance: please rank these 3 entries by IC50, highest to lowest. Record the ranking as a list of labels in the requested order.
[A] a, b, c
(a: 12000 nM, b: 49 nM, c: 30 nM)

P: CC1(C)[C@@H]2CC[C@@]1(CS(=O)(=O)N1CCC3(CCc4ccccc43)CC1)[C@@H](NC(=O)Cc1c[nH]cn1)C2
Q: Cn1cnc(CC(=O)N[C@@H](CCC(N)=O)C(=O)N[C@H]2C[C@H]3CC[C@]2(CS(=O)(=O)N2CCC4(CCc5ccccc54)CC2)C3(C)C)c1
R: CC(C)C[C@@H](N)C(=O)N[C@H]1C[C@H]2CC[C@]1(CS(=O)(=O)N1CCC3(CCc4ccccc43)CC1)C2(C)C
S: CC1(C)[C@@H]2CC[C@@]1(CS(=O)(=O)N1CCC3(C=Cc4ccccc43)CC1)[C@](O)(CN)C2
[Q] List by increasing IC50. Give your ranking as a list of the labels in the requested order.
[A] Q, P, R, S
(Q: 1.7 nM, P: 52 nM, R: 580 nM, S: 10000 nM)

* * *

Target: Vasopressin V2 receptor (Rattus norvegicus)
Sequence (Q00788 whole entry): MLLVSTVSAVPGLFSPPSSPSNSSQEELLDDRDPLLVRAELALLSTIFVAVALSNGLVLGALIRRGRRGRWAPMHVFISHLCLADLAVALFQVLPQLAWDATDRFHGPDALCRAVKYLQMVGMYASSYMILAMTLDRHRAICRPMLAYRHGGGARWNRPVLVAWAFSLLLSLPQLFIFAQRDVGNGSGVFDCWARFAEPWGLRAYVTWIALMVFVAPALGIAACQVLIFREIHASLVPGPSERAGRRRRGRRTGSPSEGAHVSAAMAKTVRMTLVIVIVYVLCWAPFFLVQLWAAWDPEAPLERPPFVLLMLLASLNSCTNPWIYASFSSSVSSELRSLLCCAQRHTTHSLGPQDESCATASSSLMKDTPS
Experiment: Inhibition of radioligand [3H]-AVP binding to the vasopressin V2 receptor in rat kidney tissue
result-type: IC50 (µM)

CC1(C)[C@@H]2CC[C@@]1(CS(=O)(=O)N1CCC3(C=Cc4ccccc43)CC1)[C@@](O)(CCNC(=O)c1cccnc1)C2; 6

A: CC1(C)[C@@H]2CC[C@@]1(CS(=O)(=O)N1CCC3(C=Cc4ccccc43)CC1)[C@@](O)(CCNC(=O)CC1CN3CCC1CC3)C2 (some centres undefined)
B: CC1(C)[C@@H]2CC[C@@]1(CS(=O)(=O)N1CCC3(CCc4ccccc43)CC1)[C@@H](N1C(=O)CNC1=O)C2
[Q] For A and B , which recorded IC50 is lower? Lab log: write the label of the selected item as the result.
[A] B
(B: 2.1 µM, A: 6.2 µM)

* * *

Target: Vasopressin V1 receptor (Rattus norvegicus, UniProt P48974+P30560)
Assay: Inhibition of radioligand [3H]AVP binding to the vasopressin V1 receptor in rat liver tissue
result-type: IC50 (µM)

CC1(C)[C@@H]2CC[C@@]1(CS(=O)(=O)N1CCC3(CCc4ccccc43)CC1)[C@@H](NC(=O)Cc1[nH]cnc1Br)C2; 8.1
CC1(C)[C@@H]2CC[C@@]1(CS(=O)(=O)N1CCC3(CCc4ccccc43)CC1)[C@@H](N1C(=O)NC(CCC(N)=O)C1=O)C2 (stereo partly drawn); 0.16

A: CC(C)C[C@H](N)C(=O)NC[C@@]1(O)C[C@H]2CC[C@]1(CS(=O)(=O)N1CCC3(C=Cc4ccccc43)CC1)C2(C)C
B: CC1(C)[C@@H]2CC[C@@]1(CS(=O)(=O)N1CCC3(CCc4ccccc43)CC1)[C@@H](NC(=O)[C@H](N)CCS(C)(=O)=O)C2
[Q] Which numeric IC50 is bigger, that of A or that of B ? To answer, give the label that identifies your chosen option.
[A] B

1: CC1(C)[C@@H]2CC[C@@]1(CS(=O)(=O)N1CCC3(C=Cc4ccccc43)CC1)[C@@](O)(CN1C(=O)CCC1=O)C2
2: CC1(C)[C@@H]2CC[C@@]1(CS(=O)(=O)N1CCC3(CCc4ccccc43)CC1)[C@@H](N1C(=O)NC(=O)C1=O)C2
3: CC1(C)[C@@H]2CC[C@@]1(CS(=O)(=O)N1CCC3(CCc4ccccc43)CC1)[C@@H](NC(=O)[C@H](CCC(N)=O)NC(=O)CCN)C2
4: Cn1cnc(CC(=O)N[C@H]2C[C@H]3CC[C@]2(CS(=O)(=O)N2CCC4(CCc5ccccc54)CC2)C3(C)C)c1
5: CC1(C)[C@@H]2CC[C@@]1(CS(=O)(=O)N1CCC3(C=Cc4ccccc43)CC1)[C@@](O)(CNC(=O)Cc1cccnc1)C2
[Q] Arrange the 5 molecules from largest to smallest IC50. The reply should contain the labels ordered as requested.
[A] 2, 4, 1, 5, 3
(2: 9.2 µM, 4: 4.5 µM, 1: 3 µM, 5: 0.89 µM, 3: 0.49 µM)

* * *

Target: Vasopressin V1 receptor (Rattus norvegicus, UniProt P48974+P30560)
Test: Inhibition of radioligand [3H]AVP binding to the vasopressin V1 receptor in rat liver tissue
result-type: IC50 (nM)

These recorded examples may help you get a feel for the data.
CC1(C)[C@@H]2CC[C@@]1(CS(=O)(=O)N1CCC3(CCc4ccccc43)CC1)[C@@H](NC(=O)C(N)CCCO)C2 (stereo partly specified); 1700
CC1(C)[C@@H]2CC[C@@]1(CS(=O)(=O)N1CCC3(CCc4ccccc43)CC1)[C@@H](N1C(=O)NC(Cc3c[nH]cn3)C1=O)C2 (single isomer, unassigned; isomer A); 600

P: CC1(C)[C@@H]2CC[C@@]1(CS(=O)(=O)N1CCC3(CCc4ccccc43)CC1)[C@@H](N1C(=O)CN(CCCn3ccnc3)C1=O)C2
Q: CC1(C)[C@@H]2CC[C@@]1(CS(=O)(=O)N1CCC3(CCc4ccccc43)CC1)[C@@H](NC(=O)CCc1ccccc1)C2
[Q] Please let me know which one, P or Q , has a lower measured IC50 value. Respond using the label that marks the chosen record.
[A] P
(P: 500 nM, Q: 10000 nM)

* * *

Target: Vasopressin V1 receptor (Rattus norvegicus, UniProt P48974+P30560)
Experiment: Inhibition of radioligand [3H]AVP binding to the vasopressin V1 receptor in rat liver tissue
result-type: IC50 (nM)

Some solved cases for reference:
CC1(C)[C@@H]2CC[C@@]1(CS(=O)(=O)N1CCC3(CCc4ccccc43)CC1)[C@@H](NC(=O)NC1CN3CCC1CC3)C2 (single isomer, unassigned; isomer B); 2100
CC1(C)[C@@H]2CC[C@@]1(CS(=O)(=O)N1CCC3(CCc4ccccc43)CC1)[C@@H](NC(=O)CCN)C2; 1000

a: CC1(C)[C@@H]2CC[C@@]1(CS(=O)(=O)N1CCC3(C=Cc4ccccc43)CC1)/C(=N\O)C2
b: CC1(C)[C@@H]2CC[C@@]1(CS(=O)(=O)N1CCC3(CCc4ccccc43)CC1)[C@@H](N1C(=O)NC(CCS(N)(=O)=O)C1=O)C2 (stereo partly specified)
c: CC1(C)[C@@H]2CC[C@@]1(CS(=O)(=O)N1CCC3(CCc4ccccc43)CC1)[C@@](O)(CN1CCCC1=O)C2
d: CN1CC(=O)N([C@H]2C[C@H]3CC[C@]2(CS(=O)(=O)N2CCC4(CCc5ccccc54)CC2)C3(C)C)C1=O
[Q] Order these by IC50, descending, and give the full ranking. Provide the labels, sequenced as the question asks.
[A] a, c, d, b

P: CC1(C)[C@@H]2CC[C@@]1(CS(=O)(=O)N1CCC3(CCc4ccccc43)CC1)[C@@H](N1C(=O)NC(CNc3n[nH]c(N)n3)C1=O)C2 (stereo partly specified)
Q: CC1(C)[C@@H]2CC[C@@]1(CS(=O)(=O)N1CCC3(CCc4ccccc43)CC1)[C@@H](NC(=O)NCCc1c[nH]cn1)C2
R: CC(C)[C@H](N)C(=O)NC[C@@]1(O)C[C@H]2CC[C@]1(CS(=O)(=O)N1CCC3(C=Cc4ccccc43)CC1)C2(C)C
S: CC1(C)[C@@H]2CC[C@@]1(CS(=O)(=O)N1CCC3(CCc4ccccc43)CC1)[C@@H](NC(=O)[C@@H](N)CCC(N)=O)C2
T: CC1(C)[C@@H]2CC[C@@]1(CS(=O)(=O)N1CCC3(CCc4ccccc43)CC1)[C@@H](N1C(=O)NC(CN)C1=O)C2 (stereo partly specified)
[Q] # ascending order, key=IC50 Use the labels to give the requested order.
[A] P, R, T, S, Q

a: Cn1cnc(CC(=O)N[C@@H](CCC(N)=O)C(=O)N[C@H]2C[C@H]3CC[C@]2(CS(=O)(=O)N2CCC4(CCc5ccccc54)CC2)C3(C)C)c1
b: CC1(C)[C@@H]2CC[C@@]1(CS(=O)(=O)N1CCC3(C=Cc4ccccc43)CC1)[C@@](O)(CNC(=O)c1ccncc1)C2
c: CC1(C)[C@@H]2CC[C@@]1(CS(=O)(=O)N1CCC3(C=Cc4ccccc43)CC1)[C@H](O)C2
d: CC1(C)[C@@H]2CC[C@@]1(CS(=O)(=O)N1CCC3(CCc4ccccc43)CC1)[C@@H](NC(=O)C(N)CS(N)(=O)=O)C2 (stereo partly specified)
[Q] Given 4 compounds, produce a descending ranking by IC50. Write out the labels following the order that was asked for.
[A] c, d, a, b
(c: 8400 nM, d: 2900 nM, a: 1900 nM, b: 1200 nM)

1: CC1(C)[C@@H]2CC[C@@]1(CS(=O)(=O)N1CCC3(CCc4ccccc43)CC1)[C@@H](N1C(=O)CCC1=O)C2
2: CC1(C)[C@@H]2CC[C@@]1(CS(=O)(=O)N1CCC3(CCc4ccccc43)CC1)[C@@H](N1C(=O)NC(CC(=O)Nc3nn[nH]n3)C1=O)C2 (stereo partly specified)
[Q] # query: argmin of IC50 over 1 and 2 // respond with label for picked entry
[A] 1
(1: 910 nM, 2: 3700 nM)
